For each of the binders below, state its Kd.
Molecular target: SARS-CoV-2 receptor-binding domain (amino acids 330-532), prototypical Wuhan/Victoria (SARS-CoV-2 (Wuhan/Victoria), UniProt P0DTC2 330-532)
Assay: SPR, VHH analyte over immobilised RBD
Answers are plain numbers, in nM.

Worked set:
[[record]]
binder = "C1 (VHH) VHH: QVQLVESGGGLVQPGGSLRLSCAASGFTNDFYSIAWFRQAPGKEREGVSWLSVSDNTPTYVDSVKDRFTISRHNANNTVYLQMNMLKPEDTAIYYCAAGRFAGRDTWPSSYDYWGQGTQVTVSS"
measurementunit = "nM"
observed = 0.615

[[record]]
binder = "F2 (VHH, also called VHH F2) VHH: QVQLVESGGGLVQAGGSLRLACIASGRTFHSYVMAWFRQAPGKEREFVAAISWSSTPTYYGESVKGRFTISRDNAKNTVYLQMNRLKPEDTAVYFCAADRGESYYYTRPTEYEFWGQGTQVTVSS"
measurementunit = "nM"
observed = 0.04

[[record]]
binder = "H3 (VHH) VHH: QVQLVESGGGLVKTGGSLRLSCAASGRTFSTYSMGWFRQAPGKEREFVAGMRWTGSSTFYSDSVKGRFTVSRNNAKDTVYLHMNSLKPEDTAVYYCAITTIVRAYYTEYTEADFGSWGQGTQVTVSS"
measurementunit = "nM"
observed = 0.025


If you can, please state the reported Kd value of C5 (VHH, also called VHH C5) VHH: QVQLVESGGGSVQAGGSLTLSCVASGVTLGRHAIGWFRQAPGKERERVSCIRTFDGITSYVESTKGRFTISSNNAMNTVYLQMNSLKPEDTAVYFCALGVTAACSDNPYFWGQGTQVTVSS .
0.099
